TARGET_DESC: UniProt:Q9NR96
Sequence (Q9NR96 26-1032): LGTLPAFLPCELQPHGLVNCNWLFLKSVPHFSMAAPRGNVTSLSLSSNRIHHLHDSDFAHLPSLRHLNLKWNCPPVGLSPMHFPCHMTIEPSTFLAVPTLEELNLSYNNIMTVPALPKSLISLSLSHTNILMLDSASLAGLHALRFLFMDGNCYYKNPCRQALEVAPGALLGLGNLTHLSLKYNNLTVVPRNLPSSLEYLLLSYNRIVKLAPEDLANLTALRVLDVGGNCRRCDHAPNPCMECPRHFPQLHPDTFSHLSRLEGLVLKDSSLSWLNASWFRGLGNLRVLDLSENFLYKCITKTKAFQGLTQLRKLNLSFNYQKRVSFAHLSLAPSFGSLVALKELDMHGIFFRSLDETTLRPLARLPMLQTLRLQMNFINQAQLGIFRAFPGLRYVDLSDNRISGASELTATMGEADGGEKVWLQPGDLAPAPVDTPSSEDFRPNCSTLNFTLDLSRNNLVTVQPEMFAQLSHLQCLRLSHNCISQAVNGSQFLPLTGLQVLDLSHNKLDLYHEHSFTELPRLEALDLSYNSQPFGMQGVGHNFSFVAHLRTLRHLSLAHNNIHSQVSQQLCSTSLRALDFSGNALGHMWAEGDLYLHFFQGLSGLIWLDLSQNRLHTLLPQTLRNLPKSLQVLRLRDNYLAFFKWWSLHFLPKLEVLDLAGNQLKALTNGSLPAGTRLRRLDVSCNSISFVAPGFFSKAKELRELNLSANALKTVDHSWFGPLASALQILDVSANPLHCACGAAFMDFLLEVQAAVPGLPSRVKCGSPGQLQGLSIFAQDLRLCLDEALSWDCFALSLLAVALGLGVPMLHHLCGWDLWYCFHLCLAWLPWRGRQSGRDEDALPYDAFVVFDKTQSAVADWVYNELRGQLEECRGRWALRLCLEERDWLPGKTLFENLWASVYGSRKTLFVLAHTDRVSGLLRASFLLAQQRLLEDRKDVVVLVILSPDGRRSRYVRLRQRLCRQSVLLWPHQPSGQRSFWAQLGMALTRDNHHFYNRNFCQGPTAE
ASSAY_COMMENT: HEK293-Blue-hTLR-9 cells assay (SEAP reporter, ODN2006 stimulation)
CONDITION_PARAMETERS: HEK293-Blue-hTLR9 cells, ODN2006 ligand, 20 hrs incubation
pIC50: −log10 of the molar value.
READOUT_TYPE: pIC50

Here is how some compounds turned out for pIC50.
compound="C[C@@H]1CN(c2ccc(C#N)n3nccc23)C[C@H](CN2CCC3(CCCCN3)CC2)O1 [Example 47]" target_desc=UniProt:Q9NR96 readout_type=pIC50 endpoint_result=6.72
compound="C[C@@H]1CN(c2ccc(C#N)n3nccc23)C[C@H](CN2CC3CNCCC32)O1 (stereo partly shown) [Example 52]" target_desc=UniProt:Q9NR96 readout_type=pIC50 endpoint_result=6.59
compound="C[C@@H]1CN(c2ccc(C#N)n3nccc23)C[C@H](CN2C3CCC2CC(N)C3)O1 (stereo partly shown) [Example 37]" target_desc=UniProt:Q9NR96 readout_type=pIC50 endpoint_result=7.11

[P] C[C@@H]1CN(c2ccc(C#N)n3nccc23)C[C@H](CN2CCC(N)C(F)(F)C2)O1 (stereo partly shown) [Example 34]
[Q] C[C@@H]1CN(c2ccc(C#N)n3nccc23)C[C@H](CN2CCN(C3CCNCC3)CC2Cc2ccccc2)O1 (stereo partly shown) [Example 77]
[R] C[C@@H]1CN(c2ccc(C#N)n3nccc23)C[C@H](CN2CCC(N3CCCC3)CC2)O1 [Example 54]
Req: Please list the entries, largest pIC50 first. # format: label list in the order the request specifies
Resp: Q, R, P
(Q: 6.82, R: 6.29, P: 4.00)

[I] C[C@@H]1CN(c2ccc(C#N)n3nccc23)C[C@H](CN2CCC(C)(N)CC2)O1 [Example 29]
[II] C[C@@H]1CN(c2ccc(C#N)n3nccc23)C[C@H](CN2CC3CCC2CN3)O1 (stereo partly shown) [Example 30]
Req: Compare I and II and name the one whose reported pIC50 is smaller. Answer with the label corresponding to your selection.
Resp: II
